Numbers sourced from the supplement of paper PMC7125110.

B1: glmS ribozyme (parent)
chain: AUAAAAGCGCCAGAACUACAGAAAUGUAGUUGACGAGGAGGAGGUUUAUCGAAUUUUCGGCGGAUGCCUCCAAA

Variants of: B1
Experiment: self-cleavage kobs at 40 uM GlcN6P; higher = faster cleavage; RNA array
Conditions: with glucosamine-6-phosphate
Variants at the floor of the assay were thinned out.
OUTCOME MEASURE: self-cleavage kobs at 40 uM GlcN6P

Give its self-cleavage kobs at 40 uM GlcN6P value. Item: G7A G32A G51A G62C C68A
< 1e-05 s⁻¹

Give its self-cleavage kobs at 40 uM GlcN6P value. Item: A33U G60A
< 1e-05 s⁻¹

Give its self-cleavage kobs at 40 uM GlcN6P value. Item: C10A U57G
< 1e-05 s⁻¹

Give its self-cleavage kobs at 40 uM GlcN6P value. Item: A36U U47G C70G
6.62e-05 s⁻¹

Give its self-cleavage kobs at 40 uM GlcN6P value. Item: G38U C50U G51C U69A
8.35e-05 s⁻¹

Give its self-cleavage kobs at 40 uM GlcN6P value. Item: C16A A52U G60A C71G
5.98e-05 s⁻¹

Give its self-cleavage kobs at 40 uM GlcN6P value. Item: G62C U65A
< 1e-05 s⁻¹

Give its self-cleavage kobs at 40 uM GlcN6P value. Item: A39C G60C C68U
< 1e-05 s⁻¹

Give its self-cleavage kobs at 40 uM GlcN6P value. Item: G51A G62C
< 1e-05 s⁻¹

Give its self-cleavage kobs at 40 uM GlcN6P value. Item: U54G U65G
5.92e-05 s⁻¹

Give its self-cleavage kobs at 40 uM GlcN6P value. Item: C10A A15U C16U C34U
< 1e-05 s⁻¹

Give its self-cleavage kobs at 40 uM GlcN6P value. Item: G7C U49A
< 1e-05 s⁻¹

Give its self-cleavage kobs at 40 uM GlcN6P value. Item: U46G C70A
4.78e-05 s⁻¹

Give its self-cleavage kobs at 40 uM GlcN6P value. Item: U45G A52C U55C C71U
< 1e-05 s⁻¹

Give its self-cleavage kobs at 40 uM GlcN6P value. Item: A6G C8G A39C U55C C70A
< 1e-05 s⁻¹

Give its self-cleavage kobs at 40 uM GlcN6P value. Item: A6U G9C
< 1e-05 s⁻¹

Give its self-cleavage kobs at 40 uM GlcN6P value. Item: A6G C16G G29C A39G G43C U47G G51U C61A
< 1e-05 s⁻¹

Give its self-cleavage kobs at 40 uM GlcN6P value. Item: A39C U69G
< 1e-05 s⁻¹

Give its self-cleavage kobs at 40 uM GlcN6P value. Item: G37A A64G
6.01e-05 s⁻¹

Give its self-cleavage kobs at 40 uM GlcN6P value. Item: U31G A33G U56C
< 1e-05 s⁻¹

Give its self-cleavage kobs at 40 uM GlcN6P value. Item: G38A C58U U69C
< 1e-05 s⁻¹

Give its self-cleavage kobs at 40 uM GlcN6P value. Item: A15C A39G G40A G59C
< 1e-05 s⁻¹

Give its self-cleavage kobs at 40 uM GlcN6P value. Item: C34U G66U
< 1e-05 s⁻¹

Give its self-cleavage kobs at 40 uM GlcN6P value. Item: G7U C58A C67G C70U
9.59e-05 s⁻¹

Give its self-cleavage kobs at 40 uM GlcN6P value. Item: G37U G59U
< 1e-05 s⁻¹

Give its self-cleavage kobs at 40 uM GlcN6P value. Item: G41U U46G G59C
< 1e-05 s⁻¹

Give its self-cleavage kobs at 40 uM GlcN6P value. Item: G38U G41C
< 1e-05 s⁻¹

Give its self-cleavage kobs at 40 uM GlcN6P value. Item: C8G G37C
< 1e-05 s⁻¹

Give its self-cleavage kobs at 40 uM GlcN6P value. Item: G43A C58A
< 1e-05 s⁻¹

Give its self-cleavage kobs at 40 uM GlcN6P value. Item: G41U G60U U69C
< 1e-05 s⁻¹

Give its self-cleavage kobs at 40 uM GlcN6P value. Item: A42C G51C
< 1e-05 s⁻¹

Give its self-cleavage kobs at 40 uM GlcN6P value. Item: C10G C16U U49C
< 1e-05 s⁻¹

Give its self-cleavage kobs at 40 uM GlcN6P value. Item: G7C U30G G35U G37U U57C C71G
< 1e-05 s⁻¹

Give its self-cleavage kobs at 40 uM GlcN6P value. Item: C34A G43C A48G
< 1e-05 s⁻¹

Give its self-cleavage kobs at 40 uM GlcN6P value. Item: C10U G44A G51U
< 1e-05 s⁻¹

Give its self-cleavage kobs at 40 uM GlcN6P value. Item: A14U U54A G59C
< 1e-05 s⁻¹

Give its self-cleavage kobs at 40 uM GlcN6P value. Item: C16G A33G
< 1e-05 s⁻¹

Give its self-cleavage kobs at 40 uM GlcN6P value. Item: C16G U65C C71G
< 1e-05 s⁻¹

Give its self-cleavage kobs at 40 uM GlcN6P value. Item: A15U C50G C61A
0.000142 s⁻¹

Give its self-cleavage kobs at 40 uM GlcN6P value. Item: U30C U45A U47C C50U G60U C68U
< 1e-05 s⁻¹

Give its self-cleavage kobs at 40 uM GlcN6P value. Item: C34U G40U C67G
< 1e-05 s⁻¹

Give its self-cleavage kobs at 40 uM GlcN6P value. Item: G29C C68U
2.38e-05 s⁻¹

Give its self-cleavage kobs at 40 uM GlcN6P value. Item: G29C A52U C70G
< 1e-05 s⁻¹

Give its self-cleavage kobs at 40 uM GlcN6P value. Item: A36C U69G
4.49e-05 s⁻¹

Give its self-cleavage kobs at 40 uM GlcN6P value. Item: G32A U55G
4.93e-05 s⁻¹

Give its self-cleavage kobs at 40 uM GlcN6P value. Item: G13C C16U G63A
< 1e-05 s⁻¹

Give its self-cleavage kobs at 40 uM GlcN6P value. Item: G7C G66U
< 1e-05 s⁻¹

Give its self-cleavage kobs at 40 uM GlcN6P value. Item: G35U G62A
< 1e-05 s⁻¹

Give its self-cleavage kobs at 40 uM GlcN6P value. Item: G43C
< 1e-05 s⁻¹

Give its self-cleavage kobs at 40 uM GlcN6P value. Item: C16G G21U
0.00012 s⁻¹

Give its self-cleavage kobs at 40 uM GlcN6P value. Item: G9U U49G
< 1e-05 s⁻¹

Give its self-cleavage kobs at 40 uM GlcN6P value. Item: C8G G37U G41C U56A
< 1e-05 s⁻¹

Give its self-cleavage kobs at 40 uM GlcN6P value. Item: G29U U56A
4.68e-05 s⁻¹

Give its self-cleavage kobs at 40 uM GlcN6P value. Item: C11A A14U A36U U46A
< 1e-05 s⁻¹

Give its self-cleavage kobs at 40 uM GlcN6P value. Item: A6G U30C
< 1e-05 s⁻¹

Give its self-cleavage kobs at 40 uM GlcN6P value. Item: C61U U65A
< 1e-05 s⁻¹

Give its self-cleavage kobs at 40 uM GlcN6P value. Item: C11U G32C A36G G62A C71G
< 1e-05 s⁻¹

Give its self-cleavage kobs at 40 uM GlcN6P value. Item: A6G G60C
< 1e-05 s⁻¹

Give its self-cleavage kobs at 40 uM GlcN6P value. Item: A39C G59C
< 1e-05 s⁻¹

Give its self-cleavage kobs at 40 uM GlcN6P value. Item: U47C U65A
6.54e-05 s⁻¹

Give its self-cleavage kobs at 40 uM GlcN6P value. Item: A14G C58A
2.97e-05 s⁻¹

Give its self-cleavage kobs at 40 uM GlcN6P value. Item: G29U U56G G62U
< 1e-05 s⁻¹

Give its self-cleavage kobs at 40 uM GlcN6P value. Item: A53C G62A
< 1e-05 s⁻¹

Give its self-cleavage kobs at 40 uM GlcN6P value. Item: C50G G62A
3.58e-05 s⁻¹

Give its self-cleavage kobs at 40 uM GlcN6P value. Item: G9U C61G
< 1e-05 s⁻¹

Give its self-cleavage kobs at 40 uM GlcN6P value. Item: A6U G38A
< 1e-05 s⁻¹

Give its self-cleavage kobs at 40 uM GlcN6P value. Item: U54G G62C
< 1e-05 s⁻¹

Give its self-cleavage kobs at 40 uM GlcN6P value. Item: G40C A48C A52U
< 1e-05 s⁻¹

Give its self-cleavage kobs at 40 uM GlcN6P value. Item: G37C G38U
< 1e-05 s⁻¹

Give its self-cleavage kobs at 40 uM GlcN6P value. Item: G43U U65G
< 1e-05 s⁻¹

Give its self-cleavage kobs at 40 uM GlcN6P value. Item: G29U A53C C68U
< 1e-05 s⁻¹

Give its self-cleavage kobs at 40 uM GlcN6P value. Item: A12U G13C
< 1e-05 s⁻¹

Give its self-cleavage kobs at 40 uM GlcN6P value. Item: C8U A42G
< 1e-05 s⁻¹

Give its self-cleavage kobs at 40 uM GlcN6P value. Item: G29C G62A
< 1e-05 s⁻¹

Give its self-cleavage kobs at 40 uM GlcN6P value. Item: A33G G40C U56G
< 1e-05 s⁻¹

Give its self-cleavage kobs at 40 uM GlcN6P value. Item: C11U G38A G41A A42G
< 1e-05 s⁻¹

Give its self-cleavage kobs at 40 uM GlcN6P value. Item: G7C A52U
< 1e-05 s⁻¹

Give its self-cleavage kobs at 40 uM GlcN6P value. Item: A36C U65C
< 1e-05 s⁻¹

Give its self-cleavage kobs at 40 uM GlcN6P value. Item: G35C G66C
< 1e-05 s⁻¹

Give its self-cleavage kobs at 40 uM GlcN6P value. Item: U54G
0.00117 s⁻¹

Give its self-cleavage kobs at 40 uM GlcN6P value. Item: G44U U57C
< 1e-05 s⁻¹

Give its self-cleavage kobs at 40 uM GlcN6P value. Item: U31G A64U
< 1e-05 s⁻¹

Give its self-cleavage kobs at 40 uM GlcN6P value. Item: G7U A52G C68G
0.000127 s⁻¹

Give its self-cleavage kobs at 40 uM GlcN6P value. Item: A6G G32U G37C A64U C68G C70G
< 1e-05 s⁻¹

Give its self-cleavage kobs at 40 uM GlcN6P value. Item: U47G C70A
3.74e-05 s⁻¹

Give its self-cleavage kobs at 40 uM GlcN6P value. Item: G7C U56G
< 1e-05 s⁻¹

Give its self-cleavage kobs at 40 uM GlcN6P value. Item: A12C A33C A39C
< 1e-05 s⁻¹

Give its self-cleavage kobs at 40 uM GlcN6P value. Item: C68U U69A
< 1e-05 s⁻¹

Give its self-cleavage kobs at 40 uM GlcN6P value. Item: U56A U69C
0.000222 s⁻¹

Give its self-cleavage kobs at 40 uM GlcN6P value. Item: C8U C68A
< 1e-05 s⁻¹

Give its self-cleavage kobs at 40 uM GlcN6P value. Item: C16A G32C G41C C68U C70A C71U
< 1e-05 s⁻¹
